subjectOfTest: β-adrenergic receptors
protocolDetails: Binding of 3H-dihydroalprenolol to β-adrenergic receptors, calf brain cortical membranes
condition: inhibition of 2 nM 3H-dihydroalprenolol binding, 20° C, 20 minutes, pH 7.4, read-out: Beta IC50
pIC50: −log10 of the molar value.
propertyMeasured: pIC50

INSERT INTO results (compound, subjectoftest, comparisonsign, testvalue) VALUES
  ('CCCC(C)(C)NCC(O)COc1ccccc1C1CCCC1.O=C(O)C(=O)O (centres unmarked)', 'β-adrenergic receptors', '=', 7.80),
  ('O=C(O)C(=O)O.OC(CNC1CCCCCCC1)COc1ccccc1C1CCCC1 (centres unmarked)', 'β-adrenergic receptors', '<', 6.00),
  ('OC(CNC1CCCC1)COc1cccc2ccccc12 (centres unmarked)', 'β-adrenergic receptors', '=', 6.86),
  ('O=C(O)C(=O)O.OC(CNC1CCCCCC1)COc1ccccc1C1CCCC1 (centres unmarked)', 'β-adrenergic receptors', '=', 7.32),
  ('CCCC(C)(C)NCC(O)COc1cccc2ccccc12 (centres unmarked)', 'β-adrenergic receptors', '=', 7.01),
  ('OC(CN[C@H]1CC[C@H](c2ccccc2)CC1)COc1cccc2ccccc12 (some centres unmarked) [(E-4-phenylcyclohexyl)]', 'β-adrenergic receptors', '=', 6.58),
  ('C#CC(C)(C)NCC(O)COc1cccc2ccccc12 (centres unmarked)', 'β-adrenergic receptors', '=', 5.87),
  ('CCC(C)NCC(O)COc1cccc2ccccc12 (centres unmarked)', 'β-adrenergic receptors', '=', 6.98),
  ('CCCCNCC(O)COc1cccc2ccccc12 (centres unmarked)', 'β-adrenergic receptors', '=', 6.91),
  ('CCCCCNCC(O)COc1cccc2ccccc12 (centres unmarked)', 'β-adrenergic receptors', '=', 6.73),
  ('CC(C)(C)NCC(O)COc1cccc2ccccc12 (centres unmarked)', 'β-adrenergic receptors', '=', 7.01),
  ('CCC(C)(C)NCC(O)COc1cccc2ccccc12 (centres unmarked)', 'β-adrenergic receptors', '=', 5.98),
  ('OC(CN[C@H]1CC[C@@H](c2ccccc2)CC1)COc1cccc2ccccc12 (some centres unmarked) [(Z-4-phenylcyclohexyl)]', 'β-adrenergic receptors', '=', 6.35),
  ('OC(CNC1CCCC1)COc1ccccc1C1CCCC1 (centres unmarked)', 'β-adrenergic receptors', '=', 8.15),
  ('CC#CC(C)(C)NCC(O)COc1cccc2ccccc12 (centres unmarked)', 'β-adrenergic receptors', '=', 6.40),
  ('CC1CCCCC1NCC(O)COc1cccc2ccccc12 (centres unmarked)', 'β-adrenergic receptors', '=', 6.76),
  ('OC(CNCCc1ccccc1)COc1cccc2ccccc12 (centres unmarked)', 'β-adrenergic receptors', '=', 6.50),
  ('CC(C)CNCC(O)COc1cccc2ccccc12 (centres unmarked)', 'β-adrenergic receptors', '=', 6.17),
  ('C=CC(C)(C)NCC(O)COc1cccc2ccccc12 (centres unmarked)', 'β-adrenergic receptors', '=', 6.91),
  ('C#CC(C)NCC(O)COc1cccc2ccccc12 (centres unmarked)', 'β-adrenergic receptors', '=', 5.90),
  ('CC(C)(C)C(C)(C)NCC(O)COc1cccc2ccccc12 (centres unmarked)', 'β-adrenergic receptors', '=', 6.65),
  ('OC(CNC1CCCCC1)COc1cccc2ccccc12 (centres unmarked)', 'β-adrenergic receptors', '=', 6.21),
  ('COCC(C)NCC(O)COc1cccc2ccccc12 (centres unmarked)', 'β-adrenergic receptors', '=', 7.19),
  ('O=C(O)/C=C\C(=O)O.OC(CNC1CCCCC1)COc1cccc2[nH]ccc12 (centres unmarked) [Cyclohexyl, maleate]', 'β-adrenergic receptors', '=', 7.25),
  ('O=C(O)C(=O)O.OC(CNC1CCCCCC1)COc1cccc2ccccc12 (centres unmarked)', 'β-adrenergic receptors', '=', 5.64),
  ('O=C(O)C(=O)O.OC(CNC1CCCCCCC1)COc1cccc2ccccc12 (centres unmarked)', 'β-adrenergic receptors', '=', 6.00);
